Molecular target: PI3Kα (His-PIK3CA/PIK3R1, p110 alpha/p85 alpha) (Homo sapiens (Human))
Sequence (P42336 whole entry, species assumed, one chain of several): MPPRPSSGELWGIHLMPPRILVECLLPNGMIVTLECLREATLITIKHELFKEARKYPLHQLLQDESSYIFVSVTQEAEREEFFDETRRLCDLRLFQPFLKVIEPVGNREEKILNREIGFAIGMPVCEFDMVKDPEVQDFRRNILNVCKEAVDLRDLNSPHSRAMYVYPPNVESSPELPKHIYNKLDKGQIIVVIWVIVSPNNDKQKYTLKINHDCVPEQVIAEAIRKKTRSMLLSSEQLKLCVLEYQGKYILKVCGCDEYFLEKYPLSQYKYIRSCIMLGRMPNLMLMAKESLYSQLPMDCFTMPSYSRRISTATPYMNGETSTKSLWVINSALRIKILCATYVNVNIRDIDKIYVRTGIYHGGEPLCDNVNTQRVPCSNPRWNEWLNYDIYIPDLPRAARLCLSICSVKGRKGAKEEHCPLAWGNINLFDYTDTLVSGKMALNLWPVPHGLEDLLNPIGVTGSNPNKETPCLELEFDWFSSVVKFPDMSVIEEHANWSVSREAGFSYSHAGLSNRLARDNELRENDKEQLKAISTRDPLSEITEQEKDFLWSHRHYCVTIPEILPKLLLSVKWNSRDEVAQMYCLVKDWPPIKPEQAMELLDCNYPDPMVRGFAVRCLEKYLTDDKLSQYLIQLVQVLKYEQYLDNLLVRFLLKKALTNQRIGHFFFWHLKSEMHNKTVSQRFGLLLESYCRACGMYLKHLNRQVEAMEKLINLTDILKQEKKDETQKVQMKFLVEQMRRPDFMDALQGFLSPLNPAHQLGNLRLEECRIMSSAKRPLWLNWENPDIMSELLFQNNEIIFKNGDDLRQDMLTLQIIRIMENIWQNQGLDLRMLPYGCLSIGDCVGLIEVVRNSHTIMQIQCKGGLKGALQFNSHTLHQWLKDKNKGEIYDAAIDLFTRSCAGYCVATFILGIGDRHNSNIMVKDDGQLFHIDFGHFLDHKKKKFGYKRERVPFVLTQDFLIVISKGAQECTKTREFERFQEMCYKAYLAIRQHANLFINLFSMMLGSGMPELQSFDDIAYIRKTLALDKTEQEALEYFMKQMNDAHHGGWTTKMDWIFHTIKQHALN
Assay: PI3Kα biochemical assay (HTRF/FRET probe)
Assay type: binding
Details: class symbol
Recorded IC50 values for a group of molecules are listed next.

Observe how each entry below is paired with its result.
>>> print(df.to_string())
                           molecular_string  measured_quantity       obs_value
0  Cc1cc2c(cc1Nc1ncc3c(n1)n(C14CC(F)(C1)C4)c(=O)n3C)OCO2               IC50       ≥ 1000 nM
1  Cc1cc2c(cc1Nc1ncc3c(C)nn(C45CC(C4)C5)c3n1)OCO2               IC50       ≥ 1000 nM
2  Cc1cc2nsnc2cc1Nc1ncc2c(n1)N(C13CCC(O)(CC1)C3)C(=O)C21CC1               IC50    10 to 100 nM
3  Cc1cc2c(cc1Nc1ncc3c(n1)n(C14CCC(O)(CC1)C4)c(=S)n3C)OCO2               IC50       ≥ 1000 nM
4  COC12CCC(n3c(=O)n(C)c4cnc(Nc5cc(F)c(-c6cnn(C)c6)cc5C)nc43)(C1)C2               IC50  100 to 1000 nM
5  Cc1cc2ncnn2cc1Nc1ncc2c(n1)n(C13CCC(O)(CC1)C3)c(=S)n2C               IC50  100 to 1000 nM

Request the reported IC50 associated with Cc1cc2ncccc2cc1Nc1ncc2c(n1)n(C13CC(F)(C1)C3)c(=O)n2C
100 to 1000 nM

Request the reported IC50 associated with COC12CCC(N3CC(=O)N(C)c4cnc(Nc5cc6c(cc5C)OCO6)nc43)(CC1)C2
≥ 1000 nM

Request the reported IC50 associated with Cc1cc2ncnn2cc1Nc1ncc2c(n1)n(C13CCC(O)(CC1)C3)c(=O)n2C
100 to 1000 nM

Request the reported IC50 associated with COC12CCC(N3CC(=O)N(C)c4cnc(Nc5cn6ncnc6cc5C)nc43)(CC1)C2
≥ 1000 nM

Request the reported IC50 associated with Cc1cc2nccnc2cc1Nc1ncc2c(n1)n(C13CCC(O)(CC1)C3)c(=O)n2C
100 to 1000 nM

Request the reported IC50 associated with Cc1cc2c(cc1Nc1ncc3c(n1)n(C14CCC(O)(CC1)C4)c(=O)n3C)OCCO2
100 to 1000 nM

Request the reported IC50 associated with Cc1cc2c(cc1Nc1ncc3c(n1)n(C14CCC(O)(CC1)C4)c(=O)n3C)OCO2
≥ 1000 nM

Request the reported IC50 associated with Cc1cc2c(cc1Nc1ncc3c(n1)N(C14CCC(O)(CC1)C4)C(=O)C31CC1)OCO2
100 to 1000 nM

Request the reported IC50 associated with Cc1cc(-c2cnco2)ncc1Nc1ncc2c(n1)N(C13CC(F)(C1)C3)C(=O)C21CC1
100 to 1000 nM

---

Recorded pIC50 values for a group of molecules are listed next.
Biological target: PI3Kδ (His-PIK3CD/PIK3R1, p110 delta/p85 alpha) (Homo sapiens (Human), UniProt O00329)
Sequence (O00329 whole entry, species assumed): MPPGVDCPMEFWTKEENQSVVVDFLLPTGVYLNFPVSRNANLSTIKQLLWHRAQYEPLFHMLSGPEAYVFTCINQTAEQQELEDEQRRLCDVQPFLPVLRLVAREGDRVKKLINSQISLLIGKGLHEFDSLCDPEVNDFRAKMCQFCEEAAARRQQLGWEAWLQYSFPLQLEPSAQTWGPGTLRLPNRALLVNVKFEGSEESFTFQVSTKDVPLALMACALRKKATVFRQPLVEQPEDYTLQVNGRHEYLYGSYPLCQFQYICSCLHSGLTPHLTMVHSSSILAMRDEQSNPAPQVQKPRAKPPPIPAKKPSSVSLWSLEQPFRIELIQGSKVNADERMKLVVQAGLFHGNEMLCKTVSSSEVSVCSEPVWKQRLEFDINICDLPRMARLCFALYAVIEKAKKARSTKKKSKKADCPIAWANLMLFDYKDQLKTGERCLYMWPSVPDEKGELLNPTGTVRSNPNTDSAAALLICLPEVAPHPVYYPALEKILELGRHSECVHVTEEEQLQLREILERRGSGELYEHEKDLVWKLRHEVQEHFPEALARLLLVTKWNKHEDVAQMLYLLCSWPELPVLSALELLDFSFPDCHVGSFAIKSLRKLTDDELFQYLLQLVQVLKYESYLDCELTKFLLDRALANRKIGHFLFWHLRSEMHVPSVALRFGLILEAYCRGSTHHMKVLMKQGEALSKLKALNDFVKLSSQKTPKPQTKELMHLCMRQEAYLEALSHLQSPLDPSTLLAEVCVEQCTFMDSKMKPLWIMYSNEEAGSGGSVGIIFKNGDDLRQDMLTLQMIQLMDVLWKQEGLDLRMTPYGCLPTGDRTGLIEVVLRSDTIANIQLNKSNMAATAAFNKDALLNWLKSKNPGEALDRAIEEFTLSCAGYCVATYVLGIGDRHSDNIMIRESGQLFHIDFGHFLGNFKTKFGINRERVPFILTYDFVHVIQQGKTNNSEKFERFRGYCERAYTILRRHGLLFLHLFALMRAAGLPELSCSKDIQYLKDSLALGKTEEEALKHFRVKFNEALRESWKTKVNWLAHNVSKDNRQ
Sequence (P27986 whole entry partner, species assumed): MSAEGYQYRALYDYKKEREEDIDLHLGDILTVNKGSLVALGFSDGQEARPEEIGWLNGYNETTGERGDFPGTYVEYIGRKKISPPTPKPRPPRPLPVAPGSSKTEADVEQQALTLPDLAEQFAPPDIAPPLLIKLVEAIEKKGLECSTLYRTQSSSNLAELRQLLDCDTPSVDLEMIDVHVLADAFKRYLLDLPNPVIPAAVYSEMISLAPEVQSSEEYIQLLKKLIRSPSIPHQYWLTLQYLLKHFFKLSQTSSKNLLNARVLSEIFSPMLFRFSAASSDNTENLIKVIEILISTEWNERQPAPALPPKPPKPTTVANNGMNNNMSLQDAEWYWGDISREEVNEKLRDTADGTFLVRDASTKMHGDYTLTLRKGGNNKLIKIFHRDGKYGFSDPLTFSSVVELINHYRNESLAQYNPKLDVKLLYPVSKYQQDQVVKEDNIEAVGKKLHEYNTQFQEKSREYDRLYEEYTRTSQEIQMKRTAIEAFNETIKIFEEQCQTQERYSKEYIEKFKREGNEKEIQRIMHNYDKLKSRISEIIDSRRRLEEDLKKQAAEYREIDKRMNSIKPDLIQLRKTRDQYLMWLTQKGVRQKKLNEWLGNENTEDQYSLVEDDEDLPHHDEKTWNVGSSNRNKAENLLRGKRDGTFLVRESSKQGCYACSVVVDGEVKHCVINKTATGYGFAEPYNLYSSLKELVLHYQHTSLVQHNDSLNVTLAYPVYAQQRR
Experiment: PI3Kδ biochemical assay (HTRF/FRET probe)
Format: binding
Conditions: class symbol
pIC50: −log10 of the molar value.

>>> print(df.to_string())
                           molecular_string  measured_quantity  obs_value
0  Cc1cc2c(cc1Nc1ncc3c(n1)n(C14CC(F)(C1)C4)c(=O)n3C)OCCO2              pIC50     ≤ 6.00

Request the reported pIC50 associated with Cc1cc2ncnn2cc1Nc1ncc2c(n1)n(C13CC(F)(C1)C3)c(=S)n2C
6.00 to 7.00

Request the reported pIC50 associated with Cc1cc2nonc2cc1Nc1ncc2c(n1)N(C13CCC(O)(CC1)C3)CC(=O)N2C
6.00 to 7.00

Data credit: patent US20250263753A1
